- EXPERIMENTAL SYSTEM: MAO B (Rattus norvegicus)
- Construct: carried out in dilute rat brain homogenate; from tissue; host or cells: rat brain homogenate
- Sequence (P19643 1-520): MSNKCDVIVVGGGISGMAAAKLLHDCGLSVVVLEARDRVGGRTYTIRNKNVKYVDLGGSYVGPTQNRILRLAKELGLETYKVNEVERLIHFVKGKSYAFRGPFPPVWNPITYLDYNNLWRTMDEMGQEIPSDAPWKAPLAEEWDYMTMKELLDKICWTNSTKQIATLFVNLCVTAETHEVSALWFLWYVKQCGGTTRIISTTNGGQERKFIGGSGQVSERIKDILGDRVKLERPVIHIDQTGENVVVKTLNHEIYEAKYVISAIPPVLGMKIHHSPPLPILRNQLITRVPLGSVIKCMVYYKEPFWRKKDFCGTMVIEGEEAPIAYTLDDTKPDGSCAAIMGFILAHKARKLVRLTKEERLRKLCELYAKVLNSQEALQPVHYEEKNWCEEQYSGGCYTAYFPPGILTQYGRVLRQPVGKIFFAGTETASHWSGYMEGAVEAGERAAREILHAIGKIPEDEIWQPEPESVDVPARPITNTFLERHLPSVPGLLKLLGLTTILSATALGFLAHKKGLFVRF
- EXPERIMENT SUMMARY: determination of monoaminooxidase B inhibition in dilute rat brain homogenate
- Type: biochemical
- APPLIED CONDITIONS: selectivity ratio from the two IC50 values, 20 min
ENDPOINT: MAO B selectivity (IC50 MAO A / IC50 MAO B)

- RECORD SMILES: "Cc1c(C)c2ccc(OCCCc3ccccc3)cc2oc1=O"
  ASSAY VALUE: 280
- RECORD SMILES: "Cc1cc2ccc(OCc3ccc(C(C)C)cc3)cc2oc1=O"
  ASSAY VALUE: "> 3600"
- RECORD SMILES: "Cc1c(C)c2cc(Cl)c(OCc3ccc(C(C)C)cc3)cc2oc1=O"
  ASSAY VALUE: "> 320"
- RECORD SMILES: "Cc1c(C)c2ccc(OCc3ccc4ccccc4c3)cc2oc1=O"
  ASSAY VALUE: "> 900"

Please look at the following molecule next.
Entry `CCc1cc2c(C)c(C)c(=O)oc2cc1OCCc1ccccc1` : reported MAO B selectivity (IC50 MAO A / IC50 MAO B) = ?
> 770

----------
- EXPERIMENTAL SYSTEM: UniProt:P19643
- Sequence (P19643 1-520): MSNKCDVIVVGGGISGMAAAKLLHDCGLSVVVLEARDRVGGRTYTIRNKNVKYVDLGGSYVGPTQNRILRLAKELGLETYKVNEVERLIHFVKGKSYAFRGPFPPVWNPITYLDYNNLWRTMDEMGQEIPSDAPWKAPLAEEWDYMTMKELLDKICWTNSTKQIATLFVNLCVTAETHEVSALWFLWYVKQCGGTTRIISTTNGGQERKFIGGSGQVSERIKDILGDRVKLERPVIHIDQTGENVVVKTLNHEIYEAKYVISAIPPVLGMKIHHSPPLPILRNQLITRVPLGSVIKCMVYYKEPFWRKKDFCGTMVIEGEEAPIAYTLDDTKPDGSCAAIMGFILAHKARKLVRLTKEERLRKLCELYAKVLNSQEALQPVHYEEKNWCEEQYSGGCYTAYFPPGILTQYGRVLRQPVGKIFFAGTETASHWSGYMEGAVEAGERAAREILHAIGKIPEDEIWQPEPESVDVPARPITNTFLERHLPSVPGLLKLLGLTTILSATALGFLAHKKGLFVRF
ENDPOINT: IC50 (nM)

- RECORD SMILES: "Cc1ccc(C)c(COc2ccc3c(C)c(C)c(=O)oc3c2)c1"
  ASSAY VALUE: 3.7

I: CCc1cc2c(C)c(C)c(=O)oc2cc1OCCc1ccccc1
II: Cc1c(C)c2ccc(OCCCc3ccccc3)cc2oc1=O
Lab note: check whether I or II shows the higher recorded IC50. Bench note: the answer is the label of the chosen record.
I
(I: 13 nM, II: 4.2 nM)

----------
Entries below carry reported pIC50 on MAO A (Rattus norvegicus).
Sequence (P21396 whole entry): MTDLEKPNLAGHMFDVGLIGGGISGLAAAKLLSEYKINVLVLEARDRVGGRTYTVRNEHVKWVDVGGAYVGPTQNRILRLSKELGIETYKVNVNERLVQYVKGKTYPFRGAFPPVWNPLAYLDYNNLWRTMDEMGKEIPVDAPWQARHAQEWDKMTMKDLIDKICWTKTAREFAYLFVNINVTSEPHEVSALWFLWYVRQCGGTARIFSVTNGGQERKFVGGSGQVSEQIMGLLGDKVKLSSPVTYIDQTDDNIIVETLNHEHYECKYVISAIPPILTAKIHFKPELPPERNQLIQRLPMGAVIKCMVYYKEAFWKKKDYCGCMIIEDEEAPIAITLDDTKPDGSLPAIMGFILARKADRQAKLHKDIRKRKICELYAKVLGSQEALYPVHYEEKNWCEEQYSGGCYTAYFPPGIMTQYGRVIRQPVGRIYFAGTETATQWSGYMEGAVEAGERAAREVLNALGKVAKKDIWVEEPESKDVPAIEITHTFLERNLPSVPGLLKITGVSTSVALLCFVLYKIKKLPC
pIC50: −log10 of the molar value.

- RECORD SMILES: "Cc1c(Cl)c(=O)oc2cc(OCc3ccc(C(C)C)cc3)ccc12"
  pIC50: "< 5.00"
- RECORD SMILES: "CC(C)c1ccc(COc2ccc3ccc(=O)oc3c2)cc1"
  pIC50: "< 5.00"
- RECORD SMILES: "Cc1c(C)c2cc(Cl)c(OCc3ccc(C(C)C)cc3)cc2oc1=O"
  pIC50: "< 5.00"

Please look at the following compound next.
Entry `Cc1c(C)c2ccc(OCCCc3ccccc3)cc2oc1=O` : reported pIC50 = ?
5.92

----------
- EXPERIMENTAL SYSTEM: MAO B (Rattus norvegicus, UniProt P19643)
- Construct: carried out in dilute rat brain homogenate; from tissue; host or cells: rat brain homogenate
- EXPERIMENT SUMMARY: determination of monoaminooxidase B inhibition in dilute rat brain homogenate
- Type: biochemical
- APPLIED CONDITIONS: selectivity ratio from the two IC50 values, 20 min
ENDPOINT: MAO B selectivity (IC50 MAO A / IC50 MAO B)

Entry `Cc1cc(=O)oc2cc(OCc3ccc(C(C)C)cc3)ccc12` : reported MAO B selectivity (IC50 MAO A / IC50 MAO B) = ?
> 2100

----------
// reported MAO B selectivity (IC50 MAO A / IC50 MAO B) per item
- EXPERIMENTAL SYSTEM: MAO B (Rattus norvegicus, UniProt P19643)
- Construct: carried out in dilute rat brain homogenate; from tissue; host or cells: rat brain homogenate
- Sequence (P19643 1-520): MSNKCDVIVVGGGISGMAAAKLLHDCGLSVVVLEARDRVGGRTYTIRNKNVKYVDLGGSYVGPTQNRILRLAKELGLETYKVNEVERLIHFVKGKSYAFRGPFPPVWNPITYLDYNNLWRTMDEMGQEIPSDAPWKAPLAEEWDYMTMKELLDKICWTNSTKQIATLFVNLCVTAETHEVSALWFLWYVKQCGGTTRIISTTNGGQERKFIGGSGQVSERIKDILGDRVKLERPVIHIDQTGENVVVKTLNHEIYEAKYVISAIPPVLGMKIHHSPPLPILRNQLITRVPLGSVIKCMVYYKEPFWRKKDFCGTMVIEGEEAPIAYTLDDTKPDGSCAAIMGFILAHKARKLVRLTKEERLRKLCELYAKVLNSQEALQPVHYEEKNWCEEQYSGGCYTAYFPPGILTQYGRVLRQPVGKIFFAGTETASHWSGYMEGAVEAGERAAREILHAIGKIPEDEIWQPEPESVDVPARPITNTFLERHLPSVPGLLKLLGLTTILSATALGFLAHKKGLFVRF
- EXPERIMENT SUMMARY: determination of monoaminooxidase B inhibition in dilute rat brain homogenate
- Assay type: biochemical
- APPLIED CONDITIONS: selectivity ratio from the two IC50 values, 20 min

- RECORD SMILES: "Cc1ccc(C)c(COc2ccc3c(C)c(C)c(=O)oc3c2)c1"
  ASSAY VALUE: "> 2700"
- RECORD SMILES: "CC(C)c1ccc(COc2ccc3ccc(=O)oc3c2)cc1"
  ASSAY VALUE: "> 5600"

Please look at the following molecule next.
Entry `Cc1c(Cl)c(=O)oc2cc(OCc3ccc(C(C)C)cc3)ccc12` : reported MAO B selectivity (IC50 MAO A / IC50 MAO B) = ?
> 2400

Origin of values: patent US5100914A
